Each entry below lists one item and its recorded IC50 value.
Molecular target: UniProtKB Q99835
Assay: Bodipy-Cyclopamine Binding Assay (confirmation assay), Hek293-SMO cells
The figure you give is taken to be in nM; do not add the unit.

Reference set, count: 5
Compound	IC50, nM
Cc1cnc(-c2cc(N3CCc4nc(NC(=O)C(C)(C)C)sc4C3)ncc2Cl)c(C)c1 [Compound A-28]	127
Cc1cnc(-c2cc(N3Cc4cnc(NC5CC5)nc4C(C)(C)C3)ncc2Cl)c(C)c1 [Compound A-80]	28.1
Cc1cnc(-c2cc(N3CCc4nc(N5CCC(O)CC5)sc4C3)ncc2Cl)c(C)c1 [Compound A-32]	86.7
Clc1cnc(N2CCc3nc(NC4CC4)ncc3C2)cc1-c1ccccn1 [Compound A-113]	470
Cc1cnc(-c2cc(N3CCc4nc(N5CCC(O)CC5)ncc4C3=O)ncc2Cl)c(C)c1 [Compound A-97]	84.1

Using the record for Cc1cnc(-c2cc(N3CCn4cc(C(=O)N5CCC(O)CC5)nc4C3)ncc2Cl)c(C)c1 [Compound A-4] , report its IC50.
639

Now consider Cc1cnc(-c2cc(N3CCc4nc(NC(=O)CCN5CCCCC5)sc4C3)ncc2Cl)c(C)c1 [Compound A-40] and answer again.
151

* * *

Biological target: Smo (Homo sapiens, UniProt Q99835)
Sequence (Q99835 28-787): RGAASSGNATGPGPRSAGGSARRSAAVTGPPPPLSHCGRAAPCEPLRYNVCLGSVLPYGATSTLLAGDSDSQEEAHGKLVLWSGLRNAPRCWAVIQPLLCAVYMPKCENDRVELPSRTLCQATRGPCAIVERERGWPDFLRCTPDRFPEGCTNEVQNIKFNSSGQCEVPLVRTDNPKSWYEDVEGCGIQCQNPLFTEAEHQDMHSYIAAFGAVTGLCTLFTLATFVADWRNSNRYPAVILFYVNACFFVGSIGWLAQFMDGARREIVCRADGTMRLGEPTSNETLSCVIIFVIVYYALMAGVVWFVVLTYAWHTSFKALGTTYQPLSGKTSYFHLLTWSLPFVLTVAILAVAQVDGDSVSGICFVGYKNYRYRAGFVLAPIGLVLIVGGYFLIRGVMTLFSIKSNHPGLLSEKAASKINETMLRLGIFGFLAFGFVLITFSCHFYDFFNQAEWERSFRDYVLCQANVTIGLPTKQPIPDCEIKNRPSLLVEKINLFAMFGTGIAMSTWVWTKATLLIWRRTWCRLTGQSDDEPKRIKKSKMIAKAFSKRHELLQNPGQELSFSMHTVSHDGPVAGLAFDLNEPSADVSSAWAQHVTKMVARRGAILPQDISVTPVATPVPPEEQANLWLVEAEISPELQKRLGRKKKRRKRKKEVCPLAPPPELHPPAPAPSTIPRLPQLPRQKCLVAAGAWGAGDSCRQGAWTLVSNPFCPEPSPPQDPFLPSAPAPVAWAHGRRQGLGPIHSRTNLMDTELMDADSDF
Test: Bodipy-Cyclopamine Binding Assay (confirmation assay), Hek293-SMO cells
Each entry below lists one item and its recorded IC50 value.

Suppose we examine the compound Cc1cnc(-c2cc(N3CCn4cc(C(=O)Nc5ccc(F)cc5)nc4C3)ncc2Cl)c(C)c1 ; what IC50 value has been reported?
> 1000 nM

Param item: Cc1cnc(-c2cc(N3CCc4nc(NC5CCCC5)ncc4C3)ncc2Cl)c(C)c1
117 nM

Next up: Cc1cnc(-c2cc(N3CCc4nc(NC(=O)C(F)(F)F)sc4C3)ncc2Cl)c(C)c1
> 1000 nM

How about Cc1cnc(-c2cc(N3CCn4cc(C(=O)O)nc4C3)ncc2Cl)c(C)c1 ?
> 10000 nM

Query Cc1cnc(-c2cc(N3Cc4cnc(N5CCCC5)nc4C(C)C3)ncc2Cl)c(C)c1 (stereo not shown) next
92.9 nM

What about this compound? Clc1cnc(N2CCc3nc(NC4CC4)ncc3C2)cc1-c1cccnc1
> 1000 nM

Do the same for Cc1cnc(-c2cc(N3CCc4nc(N)ncc4C3)ncc2Cl)c(C)c1 please
> 1000 nM
